From: patent US20260242735A1

- Tested on: human CD33 T322A (human, UniProt P20138 18-364)
- Sequence (P20138 18-364 T322A limits assumed): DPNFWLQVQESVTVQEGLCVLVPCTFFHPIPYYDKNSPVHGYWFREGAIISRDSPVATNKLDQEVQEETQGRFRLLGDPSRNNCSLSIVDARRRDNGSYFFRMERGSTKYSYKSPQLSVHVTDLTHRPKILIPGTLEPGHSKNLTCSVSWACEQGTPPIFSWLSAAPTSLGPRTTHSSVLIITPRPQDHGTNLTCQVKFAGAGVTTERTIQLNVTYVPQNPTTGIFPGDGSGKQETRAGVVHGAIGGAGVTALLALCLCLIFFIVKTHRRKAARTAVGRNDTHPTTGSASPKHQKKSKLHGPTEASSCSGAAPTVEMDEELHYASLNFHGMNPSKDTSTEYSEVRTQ
- Assay method text: flow cytometry, alanine scan
Catalogue of Mean % WT Binding values

Examples with their reported Mean % WT Binding follow.
Can you share its Mean % WT Binding? I mean this binder: Refmab #1 (antibody, V domains shown, The alanine scan used IgG or Fab; also called hP67.6) VH: EVQLVQSGAEVKKPGSSVKVSCKASGYTITDSNIHWVRQAPGQSLEWIGYIYPYNGGTDYNQKFKNRATLTVDNPTNTAYMELSSLRSEDTAFYYCVNGNPWLAYWGQGTLVTVSS VL: DIQLTQSPSTLSASVGDRVTITCRASESLDNYGIRFLTWFQQKPGKAPKLLMYAASNQGSGVPSRFSGSGSGTEFTLTISSLQPDDFATYYCQQTKEVPWSFGQGTKVEVK
104 % of WT

Can you share its Mean % WT Binding? I mean this binder: Refmab #3 (antibody, V domains shown, The alanine scan used IgG or Fab) VH: QVQLVQSGAEVKKPGSSVKVSCKASGYTFTDYNMHWVRQAPGQGLEWIGYIYPYNGGTGYNQKFKSKATITADESTNTAYMELSSLRSEDTAVYYCARGRPAMDYWGQGTLVTVSS VL: DIQMTQSPSSLSASVGDRVTITCRASESVDNYGISFMNWFQQKPGKAPKLLIYAASNQGSGVPSRFSGSGSGTDFTLTISSLQPDDFATYYCQQSKEVPWTFGQGTKVEIK
83.5 % of WT

---
Can you share its Mean % WT Binding? I mean this binder: Refmab #2 (antibody, V domains shown, The alanine scan used IgG or Fab) VH: QVQLVQSGAEVKKPGSSVKVSCKASGGTFSDYAISWVRQAPGQGLEWMGRIIPILGVADYAQKFQGRVTITADKSTRTAYMELSSLRSEDTAVYYCARNWADAFDIWGQGTMVTVSS VL: DIQLTQSPSSLSASVGDRVTITCRASQGISSVLAWYQQKPGKAPKLLIYDASSLESGVPSRFSGSGSGTDFTLTISSLQPEDFATYYCQQFDSSITFGQGTKLEIK
111 % of WT

Can you share its Mean % WT Binding? I mean this binder: Refmab #4 (antibody, V domains shown, The alanine scan used IgG or Fab) VH: QVQLVQSGAEVKKPGESVKVSCKASGYTFTNYGMNWVKQAPGQGLEWMGWINTYTGEPTYADKFQGRVTMTTDTSTSTAYMEIRNLGGDDTAVYYCARWSWSDGYYVYFDYWGQGTSVTVSS VL: DIVMTQSPDSLTVSLGERTTINCKSSQSVLDSSTNKNSLAWYQQKPGQPPKLLLSWASTRESGIPDRFSGSGSGTDFTLTIDSPQPEDSATYYCQQSAHFPITFGQGTRLEIK
98.2 % of WT
